Assay: solvent given as SMILES
Settings: in CO
MEASURED ATTRIBUTE: fluorescence lifetime

compound=N#Cc1ccc2cc[nH]c2c1 endpoint_result="3.5 ns"
compound=CN(C)CCCN1c2ccccc2Sc2ccccc21 endpoint_result="1.75 ns"
compound=CN1C(=CC2=C([O-])C(=CC3=[N+](C)c4ccccc4C3(C)C)C2=O)C(C)(C)c2cc(Cl)ccc21 endpoint_result="0.2 ns"
compound=CC[n+]1c(C=C2C(=O)C(C=C3N(C)c4ccccc4C3(C)C)=C2[O-])sc2ccccc21 endpoint_result="0.24 ns"
compound=CC1=C(C(C)(C)C)C(C)=[N+]2C1=C(C)c1c(C)c(C(C)(C)C)c(C)n1[B-]2(F)F endpoint_result="4.21 ns"
compound=CC1=[N+]2C(=Cc3cccn3[B-]2(F)F)C=C1 endpoint_result="6.96 ns"
compound=CCOC(=O)CCCCCn1c2ccc(C)cc2c(=O)c2cc3c(cc21)c(=O)c1cc(C)ccc1n3CCCCCC(=O)OCC endpoint_result="22 ns"
compound=O=C([O-])c1ccccc1-c1c2cc(I)c(=O)c(I)c-2oc2c(I)c([O-])c(I)cc12 endpoint_result="0.5 ns"
compound=CN(C)c1ccc(/C=C/C(=C(C#N)C#N)c2ccc3c4c(cccc24)CC3)cc1 endpoint_result="2.85 ns"
compound=CC1=C2C=CC(C)=[N+]2[B-](F)(F)n2cccc21 endpoint_result="6.76 ns"
compound="NS(=O)(=O)c1ccc(N2N=C(c3ccc(O)cc3)CC2c2ccccc2)cc1 (centres undefined)" endpoint_result="1.62 ns"
compound=CC(C)c1ccc2ccc3c(C(C)C)ccc4ccc1c2c43 endpoint_result="85.7 ns"
compound=CCC1=C(C)C2=Cc3c(I)c(I)c(I)n3[B-](F)(F)[N+]2=C1C endpoint_result="0.22 ns"
compound=Nc1ccc2c(c1)C(=O)N(C13C[C@H]4C[C@@H](C1)C[C@@H](C3)C4)C2=O endpoint_result="9.49 ns"
compound="COC(=O)C(Cc1ccc2oc(-c3ccc4c(c3)c3ccccc3n4-c3ccccc3)nc2c1)NC(=O)OC(C)(C)C (centres undefined)" endpoint_result="1.72 ns"
compound=CN1C(=CC=Cc2nc3nc4ccccc4nc3s2)C(C)(C)c2ccccc21 endpoint_result="0.18 ns"
compound=CC1(C)C(/C=C/C2=C(Oc3ccc(CCN=C=S)cc3Br)C(=C/C=C3/N(CCCS(=O)(=O)[O-])c4ccccc4C3(C)C)/CCC2)=[N+](CCCS(=O)(=O)[O-])c2ccccc21 endpoint_result="0.912 ns"
compound=CC1(C)C(/C=C/C2=C(c3ccc(C(=O)O)cc3)C(=C/C=C3/N(CCCCS(=O)(=O)[O-])c4ccc(S(=O)(=O)[O-])cc4C3(C)C)/CCC2)=[N+](CCCCS(=O)(=O)[O-])c2ccc(S(=O)(=O)[O-])cc21 endpoint_result="0.81 ns"
compound=CCNc1ccc2c(C(F)(F)F)cc(=O)oc2c1 endpoint_result="4.84 ns"
compound="O=[N+]([O-])c1ccc(F)cc1C1CC(c2cccc3ccccc23)=NN1c1ccccc1 (centres undefined)" endpoint_result="2.86 ns"
compound=CCOC(=O)CCCCCn1c2ccccc2c(=O)c2cc(I)ccc21 endpoint_result="1.7 ns"
compound=CCCn1c2cccc3c2[c+]2c4c1cccc4n(CCC)c1cccc(c12)n3CCC endpoint_result="9.9 ns"
compound=O=Cc1ccc(C2=C3C=c4c(oc5ccccc45)=[N+]3[B-](F)(F)n3c2cc2c4ccccc4oc23)cc1 endpoint_result="2.73 ns"
compound=COc1cc(/C=C2/SC(=O)NC2=O)cc(OC)c1O endpoint_result="0.39 ns"

====

Test: solvent given as SMILES
Settings: in CC#N
MEASURED ATTRIBUTE: fluorescence lifetime (ns)

smiles_structure=N#Cc1ccc(-n2cccc2)cc1 measured_attribute="fluorescence lifetime" endpoint_result=8.2
smiles_structure=CC(C)c1ccc(/C=C/c2nc3ccc(N(C)C)cc3s2)cc1 measured_attribute="fluorescence lifetime" endpoint_result=3.27
smiles_structure=CC1(C)c2cc(C#N)ccc2-c2ccc(N3c4ccccc4Oc4ccccc43)cc21 measured_attribute="fluorescence lifetime" endpoint_result=1.23
smiles_structure=COc1cc2c(cc1/C=C/C1=CC(=C(C#N)C#N)CC(C)(C)C1)c1ccccc1n2C measured_attribute="fluorescence lifetime" endpoint_result=10.4
smiles_structure=c1ccc(-c2nc(-c3ccc(-c4cccs4)s3)[nH]c2-c2ccccc2)cc1 measured_attribute="fluorescence lifetime" endpoint_result=0.86

====

# Lookup of reported fluorescence lifetime keyed by entry
Assay: solvent given as SMILES
Conditions: in C1CCOC1
MEASURED ATTRIBUTE: fluorescence lifetime (ns)

smiles_structure=CCCCCCCc1ccc(C2=[N+]3C(=C4c5cc(OCC(CC)CC)c(-c6ccc(CCCCCCC)o6)n5[B-](F)(F)[n+]5c4n(c4cc(C(C)(C)C)ccc45)[B-]3(F)F)C=C2OCC(CC)CC)o1 endpoint_result=0.4
smiles_structure=CCCN1C(=O)c2c3c(c4c(c2C1=O)CCc1cc(-c2ccc(N(C)C)cc2)c(OC)cc1-4)-c1cc(OC)c(-c2ccc(N(C)C)cc2)cc1CC3 endpoint_result=0.93
smiles_structure=Cc1ccc(C2=C3C=CC(C#Cc4ccccc4)=[N+]3[B-](F)(F)n3c(Cl)ccc32)cc1 endpoint_result=4.24
smiles_structure=Cc1cc(N(C)C)cc(C)c1/C=C/C=C/c1ccc(C#N)cc1 endpoint_result=0.51
smiles_structure=Nc1ccc2c(c1)C(=O)N(C13C[C@H]4C[C@@H](C1)C[C@@H](C3)C4)C2=O endpoint_result=18.2
smiles_structure=CCCCCCOc1ccc(/C=C/c2ccc(N(c3ccc(/C=C/c4ccc(OCCCCCC)cc4)cc3)c3ccc(-c4nc5ccccc5nc4-c4ccc(N(c5ccc(/C=C/c6ccc(OCCCCCC)cc6)cc5)c5ccc(/C=C/c6ccc(OCCCCCC)cc6)cc5)cc4)cc3)cc2)cc1 endpoint_result=2.05

====

Assay: solvent given as SMILES
Settings: in O
Could you please mark Satisfied for values of fluorescence lifetime below 2 ns and Not satisfied for values at or above it?

smiles_structure=O=C(O)c1cccc2c(=O)c3ccccc3[nH]c12 class="Not satisfied"
smiles_structure=O=C([O-])COc1cc(NC(=O)c2ccc(-c3c4cc(Cl)c(=O)cc-4oc4cc(O)c(Cl)cc34)c(C(=O)[O-])c2)ccc1N(CC(=O)[O-])CC(=O)[O-] class=Satisfied
smiles_structure=Nc1ccc2ccc([O-])cc2c1 class="Not satisfied"
smiles_structure=O=c1[nH]c(=O)n([C@@H]2O[C@H](CO)[C@@H](O)[C@H]2O)cc1-c1cc2ccccc2s1 class=Satisfied
smiles_structure=CCCCOC(=O)c1ccccc1-c1c2ccc(=[N+](CC)CC)cc-2oc2cc(N(CC)CC)ccc12 class=Satisfied

====

Assay: solvent given as SMILES
Conditions: in O
Think of 4 ns as a floor: if fluorescence lifetime stands on it or above, it is y; beneath it, n.

compound=CCOC(=O)c1ccccc1-c1c2ccc(=[N+](CC)CC)cc-2oc2c1c(=O)oc1c3c4c(cc12)CCCN4CCC3 class=n
compound=Nc1ccccn1 class=y
compound=NNC(=O)NNN1C(=O)c2cc(S(=O)(=O)[O-])cc3c(N)c(S(=O)(=O)[O-])cc(c23)C1=O class=y
compound=COCCOCCOCCN1C(=O)c2cc(NCCOCCO)c3c4c(cc(NCCOCCO)c(c24)C1=O)C(=O)N(CCOCCOCCOC)C3=O class=y
compound=CN1CCN(CCCN2c3ccccc3Sc3ccc(C(F)(F)F)cc32)CC1 class=n
compound=CNc1ccc(/C=C/C#N)cc1 class=n
compound=CC1(C)Nc2cc(Cl)ccc2-c2[nH]c3ccccc3c(=O)c21 class=y
compound=COc1ccc2c3c([nH]c2c1)C(C)=NCC3 class=y
compound=Cc1nc2c(c[n+]1C)CN1C(=O)N([C@H]3O[C@@H](CO)[C@H](O)[C@@H]3O)C=CC1=N2 class=n
compound=CN(C)c1ccc2cc3ccc(=[N+](C)C)cc-3oc2c1 class=n
compound=CN(C)c1ccc2cc3ccc(N(C)C)cc3nc2c1 class=n
compound=COc1cc2[nH]c3c(c2cc1OCC(=O)O)CCCC3=O class=n
compound=COc1cc(N2CCOCCOCCN(c3cc(OC)c(NC(=O)c4ccc(-c5c6cc(Cl)c(=O)cc-6oc6cc([O-])c(Cl)cc56)c(C(=O)[O-])c4)cc3OC)CCOCC2)c(OC)cc1NC(=O)c1ccc(-c2c3cc(Cl)c(=O)cc-3oc3cc([O-])c(Cl)cc23)c(C(=O)[O-])c1 class=n
compound="NS(=O)(=O)c1ccc(N2N=C(c3ccc(O)cc3)CC2c2ccc(F)cc2)cc1 (centres undefined)" class=n
compound="NS(=O)(=O)c1ccc(N2N=C(c3ccc(O)cc3)CC2c2ccc(Br)cc2)cc1 (centres undefined)" class=n
compound=N#Cc1coc2ccccc2c1=O class=n
compound=N#Cc1ccc(C[C@H](N)C(=O)O)cc1 class=y
compound=O=S(=O)(/N=c1\oc2cccc3c4c(-c5ccccc5)oc5cccc(c(c1-c1ccccc1)c23)c54)C(F)(F)F class=n
compound=COc1ccc2c(=O)c3c([nH]c2c1)-c1ccccc1NC3(C)C class=y
compound=CN(C)CCCN1c2ccccc2Sc2ccc(C(F)(F)F)cc21 class=n
compound=CC1(C)C(=O)C=Cc2ccc(O)cc21 class=n
compound=CC1(C)C(/C=C/C2=C(c3ccc(C(=O)O)cc3)C(=C/C=C3/N(CCCCS(=O)(=O)[O-])c4ccc(S(=O)(=O)[O-])cc4C3(C)C)/CCC2)=[N+](CCCCS(=O)(=O)[O-])c2ccc(S(=O)(=O)[O-])cc21 class=n
compound="CN(CC(O)c1cccc(O)c1)c1ccc([N+](=O)[O-])c(C2CC(c3cccc4ccccc34)=NN2c2ccccc2)c1 (centres undefined)" class=n

Hello, the source for this data is the Deep4Chem optical property database, in case you need it.
